Answer each item with its documented EC50.
ASSAYED TARGET: MK2 enzyme (Homo sapiens)
Construct: MK2 enzyme (active enzyme (peptide 46-end (Millipore))); purchased Millipore
ASSAY: MK2 enzyme activity, IMAP fluorescence polarization assay
Assay type: biochemical
RUN PARAMETERS: MK2 IMAP assay, 1 μM ATP, 30 min pre-incubation, 2 h room temperature; read-out: pEC50 value (converted)

>>> print(df.to_string())
                                  structure             assayed_target  metric          reading
0  O=C1NCC2(CCNCC2)c2[nH]c(-c3ccnc(-c4ccc(-c5ccccc5)cc4)n3)cc21  MK2 enzyme (Homo sapiens)    EC50  3.16 to 31.6 nM
1  O=C1NCC2(CCNCC2)c2[nH]c(-c3nc(-c4cc5ccccc5o4)ncc3F)cc21  MK2 enzyme (Homo sapiens)    EC50  3.16 to 31.6 nM
2  CC(C)c1cccc(-c2nccc(-c3cc4c([nH]3)C3(CCNCC3)CNC4=O)n2)c1  MK2 enzyme (Homo sapiens)    EC50   31.6 to 316 nM

Let us examine a further case.
Task: Write down measured EC50 (MK2 enzyme (Homo sapiens)) for this molecule. "O=C1NCC2(CCNCC2)c2[nH]c(-c3ccnc(-c4nc5ccccc5s4)c3)cc21"
Result: 3.16 to 31.6 nM

* * *

Kindly state EC50 for each of the entries shown.
ASSAYED TARGET: MK2 enzyme (Homo sapiens, UniProt P49137)
Construct: MK2 enzyme (active enzyme (peptide 46-end (Millipore))); purchased Millipore
Sequence (P49137 46-400 limits assumed): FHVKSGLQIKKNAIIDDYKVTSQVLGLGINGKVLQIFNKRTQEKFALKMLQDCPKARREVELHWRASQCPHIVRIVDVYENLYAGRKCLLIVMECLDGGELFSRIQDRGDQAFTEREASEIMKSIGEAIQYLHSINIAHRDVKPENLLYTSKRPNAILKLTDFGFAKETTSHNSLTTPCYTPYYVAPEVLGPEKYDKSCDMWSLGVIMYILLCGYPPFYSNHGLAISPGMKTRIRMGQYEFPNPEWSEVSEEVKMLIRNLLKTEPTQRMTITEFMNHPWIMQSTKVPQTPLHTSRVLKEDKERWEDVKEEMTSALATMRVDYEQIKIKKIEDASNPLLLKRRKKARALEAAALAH
ASSAY: MK2 enzyme activity, IMAP fluorescence polarization assay
Format: biochemical
RUN PARAMETERS: MK2 IMAP assay, 1 μM ATP, 30 min pre-incubation, 2 h room temperature; read-out: pEC50 value (converted)

Use the examples below as a reference point.
>>> df
                                  structure  metric          reading
0  O=C1NCC2(CCNCC2)c2[nH]c(-c3nc(-c4cnc5ccccc5c4)ncc3F)cc21    EC50        ≤ 3.16 nM
1  O=C1NCC2(CCNCC2)c2[nH]c(-c3ccnc(-c4cccc(C(F)(F)F)c4)n3)cc21    EC50  3.16 to 31.6 nM

Batch request: EC50 for each of the following compounds.
1. O=C1NCC2(CCNCC2)c2[nH]c(-c3ccnc(-c4ccc(Cl)cc4F)n3)cc21
2. CC(=O)NCCN1CCC2(CC1)CNC(=O)c1cc(-c3ccnc(-c4cc5ccccc5o4)n3)[nH]c12

Result:
1: 3.16 to 31.6 nM; 2: 3.16 to 31.6 nM

* * *

ASSAY: Solubility determination of MK2 inhibitors (kinetic aqueous solubility, UPLC)
Format: physicochemical
RUN PARAMETERS: aqueous buffer (system solution from pION inc.), 22 °C, pH 7.4, aqueous buffer, kinetic from dmso stock, pH 7.4, room temperature, about 1% DMSO, 24 h shaking; read-out: solubility
METRIC: solubility at 24 h

>>> print(df.to_string())
                                   compound         reading
0  O=C1NCC2(CCNCC2)c2[nH]c(-c3nc(-c4ccc5c(c4)OCO5)ncc3F)cc21  20 to 50 µg/mL

I would be grateful if you could provide solubility at 24 h for each of the following entries.
1. CC(=O)Nc1ccc(-c2nccc(-c3cc4c([nH]3)C3(CCNCC3)CNC4=O)n2)cn1
2. O=C1NCC2(CCNCC2)c2[nH]c(-c3ccnc(-c4cnc5ccccc5c4)c3)cc21
3. O=C1NCC2(CCNCC2)c2[nH]c(-c3nc(-c4ccc(Cl)cc4F)ncc3F)cc21
4. O=C(NC1CCCCC1)c1ccc(-c2nccc(-c3cc4c([nH]3)C3(CCNCC3)CNC4=O)n2)cc1Cl
5. Cc1cc(-c2nccc(-c3cc4c([nH]3)C3(CCNCC3)CNC4=O)n2)cc(C(C)(C)C)c1

Result:
["≥ 50 µg/mL", "20 to 50 µg/mL", "≥ 50 µg/mL", "≥ 50 µg/mL", "≥ 50 µg/mL"]

Batch request: solubility at 24 h for each of the following compounds.
1. NC(=O)c1cccc(-c2nccc(-c3cc4c([nH]3)C3(CCNCC3)CNC4=O)n2)c1
2. O=C1NCC2(CCNCC2)c2[nH]c(-c3ccnc(-c4ccc5c(c4)OCO5)c3)cc21
3. O=C1NCC2(CCNCC2)c2[nH]c(-c3ccnc(-c4cccc(OC(F)(F)F)c4)n3)cc21
4. CCC(=O)Nc1ccc(-c2nccc(-c3cc4c([nH]3)C3(CCNCC3)CNC4=O)n2)cn1
5. O=C1NCC2(CCNC2)c2[nH]c(-c3ccnc(-c4cccc(F)c4)n3)cc21 (stereo not drawn)
6. CC(C)COc1ccc(-c2nccc(-c3cc4c([nH]3)C3(CCNCC3)CNC4=O)n2)cc1
7. O=C1NCC2(CCNCC2)c2[nH]c(-c3nc(-c4cc5ccccc5o4)ncc3F)cc21
8. O=C1NCC2(CCNCC2)c2[nH]c(-c3ccnc(-c4ccc5ccccc5c4)n3)cc21

Result:
1: ≥ 50 µg/mL; 2: ≥ 50 µg/mL; 3: ≥ 50 µg/mL; 4: ≥ 50 µg/mL; 5: 20 to 50 µg/mL; 6: ≥ 50 µg/mL; 7: 20 to 50 µg/mL; 8: ≥ 50 µg/mL
